biological target: BRAF G466V (Homo sapiens, UniProt P15056, G466V); construct: expressed in transfected cells; assay: Cellular assay of target protein degradation, T-Rex 293 cells stably transfected with HA-BRAF G466V (HA immunofluorescence, high content imaging); format: cell-based; settings: maximum degradation observed, T-Rex 293 HA-BRAF G466V
Sequence (P15056 whole entry G466V): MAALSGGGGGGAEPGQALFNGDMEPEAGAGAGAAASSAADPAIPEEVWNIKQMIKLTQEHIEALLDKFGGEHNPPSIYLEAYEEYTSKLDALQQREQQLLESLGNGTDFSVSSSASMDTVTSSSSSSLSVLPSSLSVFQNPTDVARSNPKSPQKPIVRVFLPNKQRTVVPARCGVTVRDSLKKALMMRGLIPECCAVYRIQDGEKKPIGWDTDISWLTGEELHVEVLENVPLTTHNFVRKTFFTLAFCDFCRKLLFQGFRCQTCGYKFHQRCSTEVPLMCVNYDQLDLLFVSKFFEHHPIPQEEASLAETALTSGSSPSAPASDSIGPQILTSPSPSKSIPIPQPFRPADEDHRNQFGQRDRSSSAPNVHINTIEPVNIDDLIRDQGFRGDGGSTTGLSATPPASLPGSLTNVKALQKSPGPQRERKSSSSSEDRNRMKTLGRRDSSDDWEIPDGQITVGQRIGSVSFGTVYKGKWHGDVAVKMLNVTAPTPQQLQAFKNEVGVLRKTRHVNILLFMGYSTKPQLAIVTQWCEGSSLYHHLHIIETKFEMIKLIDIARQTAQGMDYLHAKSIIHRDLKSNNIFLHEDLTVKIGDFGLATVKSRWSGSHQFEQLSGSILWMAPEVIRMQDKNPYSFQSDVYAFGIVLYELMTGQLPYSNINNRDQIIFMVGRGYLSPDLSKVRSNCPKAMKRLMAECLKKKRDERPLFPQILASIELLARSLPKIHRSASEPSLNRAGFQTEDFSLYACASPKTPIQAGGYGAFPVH
OUTCOME MEASURE: Dmax

Query O=C1CCC(N2Cc3cc(N4CCC(N5CCCC56CN(c5ccc(-c7cnc8[nH]cc(C(=O)c9c(F)ccc(NS(=O)(=O)N%10CC[C@@H](F)C%10)c9F)c8c7)cc5)C6)CC4)ccc3C2=O)C(=O)N1 (stereo partly drawn) on BRAF G466V (Homo sapiens, UniProt P15056, G466V); Dmax returned: > 70%

Query `O=C1CC[C@@H](N2Cc3cc(N4CCN(CC5CCN(c6ccc(-c7cnc8[nH]cc(C(=O)c9c(F)ccc(NS(=O)(=O)N%10CC[C@@H](F)C%10)c9F)c8c7)cc6)CC5)CC4)ccc3C2=O)C(=O)N1` on BRAF G466V (Homo sapiens, UniProt P15056, G466V); Dmax returned: > 70%

Continuing:
Query O=C1CCC(N2Cc3cc(C4CCN(CCc5ccc(-c6cnc7[nH]cc(C(=O)c8c(F)ccc(NS(=O)(=O)N9CC[C@@H](F)C9)c8F)c7c6)cc5)[C@H](CO)C4)ccc3C2=O)C(=O)N1 (stereo partly drawn) on BRAF G466V (Homo sapiens, UniProt P15056, G466V); Dmax returned: > 70%

----------
target: BRAF G466V (Homo sapiens, UniProt P15056, G466V); construct: expressed in transfected cells; experiment: Cellular assay of target protein degradation, T-Rex 293 cells stably transfected with HA-BRAF G466V (HA immunofluorescence, high content imaging); assay type: cell-based; settings: half maximal degradation, T-Rex 293 HA-BRAF G466V; read-out: BRaf G466V DC50
OUTCOME MEASURE: DC50

The reported value for O=C1CCC(N2Cc3cc(OCCN4CC5(C4)CN(c4ccc(-c6cnc7[nH]cc(C(=O)c8c(F)ccc(NS(=O)(=O)N9CC[C@@H](F)C9)c8F)c7c6)cc4)C5)ccc3C2=O)C(=O)N1 (stereo partly drawn) in terms of DC50 is < 1 nM

The reported value for `O=C1CC[C@H](NC(=O)c2ccc(N3CC4(CN(CC5CCN(c6ccc(-c7cnc8[nH]cc(C(=O)c9c(F)ccc(NS(=O)(=O)N%10CCC(F)(F)C%10)c9F)c8c7)cc6)CC5)C4)C3)cc2F)C(=O)N1` in terms of DC50 is 1 to 10 nM

Now examine the next entry.
The reported value for COc1cc(N2CC3(C2)CN(CC2CCN(c4ccc(-c5cnc6[nH]cc(C(=O)c7c(F)ccc(NS(=O)(=O)N8CC[C@@H](F)C8)c7F)c6c5)cc4)CC2)[C@H]3C)cc2c1C(=O)N(C1CCC(=O)NC1=O)C2 (stereo partly drawn) in terms of DC50 is 1 to 10 nM

----------
Collected DC50 values appear next to each entry.
target: BRAF V600E (Homo sapiens, UniProt P15056, V600E); construct: expressed in transfected cells; assay: Cellular assay of target protein degradation, T-Rex 293 cells stably transfected with HA-BRAF_V600E (HA immunofluorescence, high content imaging); format: cell-based; settings: half maximal degradation, T-Rex 293 HA-BRAF V600E; read-out: BRaf V600E DC50
Sequence (P15056 whole entry V600E): as the sequence (P15056 whole entry G466V) above, with V466G, V600E counted along it

The reported value for `O=C1CC[C@H](N2Cc3cc(C4CN(CC5CCN(c6ccc(-c7cnc8[nH]cc(C(=O)c9c(F)ccc(NS(=O)(=O)N%10CC[C@@H](F)C%10)c9F)c8c7)cc6)CC5)C4)ccc3C2=O)C(=O)N1` in terms of DC50 is 50 to 500 nM

The reported value for `O=C1CC[C@H](NC(=O)c2ccc(N3CC4(CN(CC5CCN(c6ccc(-c7cnc8[nH]cc(C(=O)c9c(F)ccc(NS(=O)(=O)N%10CC[C@@H](F)C%10)c9F)c8c7)cc6)CC5)C4)C3)cc2F)C(=O)N1` in terms of DC50 is 5 to 50 nM

The reported value for `O=C1CC[C@@H](N2Cc3cc(CCCCN4CC5(C4)CN(c4ccc(-c6cnc7[nH]cc(C(=O)c8c(F)ccc(NS(=O)(=O)N9CC[C@@H](F)C9)c8F)c7c6)cc4)C5)ccc3C2=O)C(=O)N1` in terms of DC50 is > 500 nM

The reported value for `O=C1CC[C@H](NC(=O)c2ccc(N3CCN(CCN4CCN(c5ccc(-c6cnc7[nH]cc(C(=O)c8c(F)ccc(NS(=O)(=O)N9CC[C@@H](F)C9)c8F)c7c6)cc5)CC4)CC3)cc2F)C(=O)N1` in terms of DC50 is 5 to 50 nM

The reported value for COc1cc(N2CC3(CN(CC4CCN(c5ccc(-c6cnc7[nH]cc(C(=O)c8c(F)ccc(NS(=O)(=O)N9CC[C@@H](F)C9)c8F)c7c6)cc5)CC4)C3)C2)cc(F)c1C(=O)NC1CCC(=O)NC1=O (some centres unmarked) in terms of DC50 is 5 to 50 nM

Continuing:
The reported value for COc1ccc(NS(=O)(=O)N2CC[C@@H](F)C2)c(OC)c1C(=O)c1c[nH]c2ncc(-c3ccc(N4CCC(CN5CCC(c6ccc7c(c6)CN(C6CCC(=O)NC6=O)C7=O)CC5)CC4)cc3)cc12 (some centres unmarked) in terms of DC50 is > 500 nM

The reported value for O=C1CCC(N2Cc3cc(N4CCC(CN5CCN(c6ccc(-c7cnc8[nH]cc(C(=O)c9c(F)ccc(NS(=O)(=O)N%10CC[C@@H](F)C%10)c9F)c8c7)cc6)CC(F)(F)C5)CC4)ccc3C2=O)C(=O)N1 (some centres unmarked) in terms of DC50 is > 500 nM

The reported value for O=C1CCC(N2Cc3cc(N4CC(CN5CCC(c6ccc(-c7cnc8[nH]cc(C(=O)c9c(F)ccc(NS(=O)(=O)N%10CC[C@@H](F)C%10)c9F)c8c7)cc6)CC5)C4)ccc3C2=O)C(=O)N1 (some centres unmarked) in terms of DC50 is 5 to 50 nM

The reported value for `O=C1CC[C@@H](N2Cc3cc(N4C[C@H]5CN(CC6CCN(c7ccc(-c8cnc9[nH]cc(C(=O)c%10c(F)ccc(NS(=O)(=O)N%11CC[C@@H](F)C%11)c%10F)c9c8)cc7)CC6)C[C@H]5C4)ccc3C2=O)C(=O)N1` in terms of DC50 is < 5 nM

The reported value for CCN(C)S(=O)(=O)Nc1ccc(F)c(C(=O)c2c[nH]c3ncc(-c4ccc(N5CCC(CN6CCC(c7ccc8c(c7)CN(C7CCC(=O)NC7=O)C8=O)CC6)CC5)cc4)cc23)c1F (centres unmarked) in terms of DC50 is 5 to 50 nM

The reported value for O=C1CCC(N2Cc3cc(CCCCCN4CCN(c5ccc(-c6cnc7[nH]cc(C(=O)c8c(F)ccc(NS(=O)(=O)N9CC[C@@H](F)C9)c8F)c7c6)cc5)CC4)ccc3C2=O)C(=O)N1 (some centres unmarked) in terms of DC50 is 5 to 50 nM

The reported value for O=C1CCC(N2Cc3cc(N4CCC(CN5CC(Cc6ncc(-c7cnc8[nH]cc(C(=O)c9c(F)ccc(NS(=O)(=O)N%10CC[C@@H](F)C%10)c9F)c8c7)cn6)C5)CC4)ccc3C2=O)C(=O)N1 (some centres unmarked) in terms of DC50 is > 500 nM

The reported value for `O=C1CC[C@H](N2Cc3cc(C[C@H](O)CN4CC5(C4)CN(c4ccc(-c6cnc7[nH]cc(C(=O)c8c(F)ccc(NS(=O)(=O)N9CC[C@@H](F)C9)c8F)c7c6)cc4)C5)ccc3C2=O)C(=O)N1` in terms of DC50 is 50 to 500 nM

The reported value for O=C1CCC(N2Cc3ccc(C4CCN(CC5CCN(c6ccc(-c7cnc8[nH]cc(C(=O)c9c(F)ccc(NS(=O)(=O)N%10CC[C@@H](F)C%10)c9F)c8c7)cc6)CC5)CC4)cc3C2=O)C(=O)N1 (some centres unmarked) in terms of DC50 is 5 to 50 nM

The reported value for `O=C1CC[C@H](N2Cc3cc(C4CCN(CC5CCN(c6ccc(-c7cnc8[nH]cc(C(=O)c9c(F)ccc(NS(=O)(=O)N%10CC[C@@H](F)C%10)c9F)c8c7)cc6F)CC5)CC4)ccc3C2=O)C(=O)N1` in terms of DC50 is < 5 nM

The reported value for `Nc1ccc(F)c(C(=O)c2c[nH]c3ncc(-c4ccc(N5CCC(CN6CCC(c7ccc8c(c7)CN([C@H]7CCC(=O)NC7=O)C8=O)CC6)CC5)cc4)cc23)c1F` in terms of DC50 is > 500 nM

The reported value for O=C1CCC(N2Cc3cc(N4CCC(CN5CCC6(CCN(c7ncc(-c8cnc9[nH]cc(C(=O)c%10c(F)ccc(NS(=O)(=O)N%11CC[C@@H](F)C%11)c%10F)c9c8)cn7)CC6)C5)CC4)ccc3C2=O)C(=O)N1 (some centres unmarked) in terms of DC50 is < 5 nM
